experiment: DAX1 (NR0B1) inhibitors on StAR promoter, primary screen, cell-based, luminescence, SF-1 (NR5A1), full-length DAX-1 (AID 652010); conditions: HEK293T StAR-luciferase reporter, SF-1/DAX-1 repression relief; at 6.8 µM; stronger effect = higher value;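 also: 0% = DAX-1 cells with DMSO and 100% = cells lacking DAX-1 with DMSO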
About 4,100 (1.1%) of roughly 370,000 compounds were called active. For the sample, actives were picked, then their nearest neighbours and some compounds at random.
VALUE TYPE: inhibition (%)

[[record]]
compound = "CCN(CC)C(=O)CC[C@@H]1CC[C@]2(CCCN(S(=O)(=O)C3CCCCC3)C2)O1"
endpoint_result = -1.81

[[record]]
compound = "CC(C)c1ccc(NS(=O)(=O)c2cn(C)c(=O)n(C)c2=O)cc1"
endpoint_result = 1.86

[[record]]
compound = "CC(C)c1ccc(C=NNc2ccc([N+](=O)[O-])cn2)cc1"
endpoint_result = 4.69

[[record]]
compound = "CC(=O)c1cc(-c2ccc3ccccc3c2)c(=O)n2c1CCC2"
endpoint_result = -1.52

[[record]]
compound = "O=C(O)C1CCCN1S(=O)(=O)c1ccc(Br)cc1 (configuration not stated)"
endpoint_result = 0.15

[[record]]
compound = "CCCNC(=O)Nc1ccc2c(c1)C(=O)N(C)[C@H]1CC[C@H](CC(=O)NCC3CCCCC3)O[C@@H]1CO2"
endpoint_result = -0.63

[[record]]
compound = "CNCC(O)c1ccc(O)c(O)c1 (configuration not stated)"
endpoint_result = 5.84


---

assay: DAX1 (NR0B1) inhibitors on StAR promoter, primary screen, cell-based, luminescence, SF-1 (NR5A1), full-length DAX-1 (AID 652010); conditions: HEK293T StAR-luciferase reporter, SF-1/DAX-1 repression relief; at 6.8 µM;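 also: 0% = DAX-1 cells with DMSO and 100% = cells lacking DAX-1 with DMSO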
Hit rate of the full screen: of about 370,000 compounds, about 4,100 (1.1%) were called active.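 Rule for the calls: active = inhibition above the mean over all tested compounds plus 3 SD (cut at about 3.6% in these data); inactive = the rest.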 What follows is part of a selection rich in actives, with near analogues and random picks from the rest.
Classes used: active, inactive

[[record]]
compound = "O=C(OC12CCCN(C1)/C(=C/c1ccccc1)C2)c1ccco1 (configuration not stated)"
discrete_label = "inactive"

[[record]]
compound = "CC1CCN(C(=O)c2ccc3c(=O)n4c(nc3c2)CCCCC4)CC1"
discrete_label = "inactive"

[[record]]
compound = "Cc1nn2c(c1-c1ccccc1)N=C(c1ccco1)CC2c1ccccc1 (configuration not stated)"
discrete_label = "inactive"

[[record]]
compound = "Cc1cc(NS(=O)(=O)c2ccc(NC(=O)CSc3nnc(SCc4ccc(F)cc4)s3)cc2)nc(C)n1"
discrete_label = "inactive"

[[record]]
compound = "O=C(O)Cn1c(Cc2ccccc2)nc2ccccc21"
discrete_label = "inactive"

[[record]]
compound = "COc1cc(/C(=C/c2ccccc2)c2ccccc2)c2c(c1)oc1ccccc12"
discrete_label = "inactive"

[[record]]
compound = "N#Cc1cccc(OC(=O)c2ccc3c(=O)n4c(nc3c2)CCC4)c1"
discrete_label = "inactive"

[[record]]
compound = "CCN(CC(=O)Nc1c(F)cccc1F)C(=O)c1cnc(C)cn1"
discrete_label = "active"

[[record]]
compound = "CCC(=O)Nc1ccc2c(c1)C(=O)N(C)[C@H]1CC[C@H](CC(=O)NCCOC)O[C@@H]1CO2"
discrete_label = "inactive"

[[record]]
compound = "Cc1cc(NS(=O)(=O)c2ccc(NC(=O)CSc3nnc(-c4ccc(C(C)(C)C)cc4)n3Cc3ccco3)cc2)nc(C)n1"
discrete_label = "inactive"

[[record]]
compound = "Cc1cc(-c2ccccc2)n2nc(C)c(-c3ccccc3)c2n1"
discrete_label = "inactive"

[[record]]
compound = "COCCCn1cc(CN2CC(N(C)C)CS2(=O)=O)nn1 (configuration not stated)"
discrete_label = "active"

[[record]]
compound = "COc1ccc(C2CC(c3cccs3)=Nc3ccccc3S2)cc1OC (configuration not stated)"
discrete_label = "inactive"

[[record]]
compound = "C[C@@H]1ON(C)[C@H]2C[C@H]3c4cc(N5CCOCC5)ccc4CCN3C[C@@H]12"
discrete_label = "inactive"

[[record]]
compound = "CC(C)(C)n1nc(C2CC2)c(Br)c1NC(=O)c1ccccc1F"
discrete_label = "inactive"

[[record]]
compound = "CCOC(=O)N1CCN(C(=O)C2CCN(S(C)(=O)=O)CC2)CC1"
discrete_label = "inactive"

[[record]]
compound = "COc1cccc(Nc2nnc(SCC(=O)N3CC(C)OC(C)C3)s2)c1 (configuration not stated)"
discrete_label = "inactive"

